Hey, just so you know, these numbers are from paper PMC3920478.

system: β-cardiac myosin S1 (Sus scrofa, UniProt P79293)
Sequence (P79293 1-843 limits assumed): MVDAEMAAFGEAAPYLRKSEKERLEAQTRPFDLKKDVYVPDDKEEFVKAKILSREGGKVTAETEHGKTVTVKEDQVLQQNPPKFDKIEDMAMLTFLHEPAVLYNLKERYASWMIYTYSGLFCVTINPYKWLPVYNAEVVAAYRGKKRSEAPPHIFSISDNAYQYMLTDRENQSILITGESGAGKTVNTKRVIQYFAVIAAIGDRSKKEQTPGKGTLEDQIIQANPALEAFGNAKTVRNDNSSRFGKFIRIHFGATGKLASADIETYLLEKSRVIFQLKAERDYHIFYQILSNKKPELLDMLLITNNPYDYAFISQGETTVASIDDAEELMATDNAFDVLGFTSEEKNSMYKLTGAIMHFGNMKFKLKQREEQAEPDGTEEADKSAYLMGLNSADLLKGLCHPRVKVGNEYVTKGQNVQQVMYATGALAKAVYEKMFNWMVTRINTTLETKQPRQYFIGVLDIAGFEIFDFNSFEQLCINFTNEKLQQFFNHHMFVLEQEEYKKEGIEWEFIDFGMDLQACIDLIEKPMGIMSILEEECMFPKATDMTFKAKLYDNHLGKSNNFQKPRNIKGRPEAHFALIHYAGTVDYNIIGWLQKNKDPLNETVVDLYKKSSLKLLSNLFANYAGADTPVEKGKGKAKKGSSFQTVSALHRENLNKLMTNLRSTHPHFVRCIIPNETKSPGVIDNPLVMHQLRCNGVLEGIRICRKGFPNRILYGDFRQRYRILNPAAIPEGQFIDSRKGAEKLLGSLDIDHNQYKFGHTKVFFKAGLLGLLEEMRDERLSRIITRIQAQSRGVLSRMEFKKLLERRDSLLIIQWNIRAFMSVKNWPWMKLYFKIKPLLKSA
measured-property: pKd
Please treat pKd as minus the base-10 logarithm of the molar concentration.

System β-cardiac myosin S1 (Sus scrofa, UniProt P79293). Read-out pKd. Item COc1ccc(C(=O)N2CCCc3cc(C4=NNC(=O)SC4C)ccc32)cc1OC (stereo not shown) . Report value.
5.14

====

system: Dd myosin-2 motor domain (Dictyostelium discoideum)
Sequence (P08799 1-761 limits assumed): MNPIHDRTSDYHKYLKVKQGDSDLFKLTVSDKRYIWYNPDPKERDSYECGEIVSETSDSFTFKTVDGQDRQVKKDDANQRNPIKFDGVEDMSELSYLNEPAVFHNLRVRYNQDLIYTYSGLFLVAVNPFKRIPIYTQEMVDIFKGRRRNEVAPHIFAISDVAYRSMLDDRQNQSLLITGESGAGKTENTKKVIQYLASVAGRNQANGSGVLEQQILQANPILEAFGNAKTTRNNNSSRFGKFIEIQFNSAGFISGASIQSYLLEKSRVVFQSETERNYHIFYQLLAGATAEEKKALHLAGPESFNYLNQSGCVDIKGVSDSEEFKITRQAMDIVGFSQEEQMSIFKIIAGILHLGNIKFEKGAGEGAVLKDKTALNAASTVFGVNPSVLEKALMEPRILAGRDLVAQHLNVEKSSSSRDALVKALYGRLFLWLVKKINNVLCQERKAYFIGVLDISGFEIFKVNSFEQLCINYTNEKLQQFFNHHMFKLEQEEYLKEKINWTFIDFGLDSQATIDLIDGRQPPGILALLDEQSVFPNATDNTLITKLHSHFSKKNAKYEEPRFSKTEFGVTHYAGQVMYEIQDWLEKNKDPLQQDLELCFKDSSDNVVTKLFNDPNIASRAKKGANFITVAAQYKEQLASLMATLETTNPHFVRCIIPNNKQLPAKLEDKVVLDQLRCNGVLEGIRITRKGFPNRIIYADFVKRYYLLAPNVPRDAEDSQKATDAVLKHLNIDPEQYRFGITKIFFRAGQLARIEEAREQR
measured-property: Kd (µM)
Record the value in µM, omitting the unit from your answer.

Look up Kd of COc1ccc(C(=O)N2CCCc3cc(C4=NNC(=O)SC4C)ccc32)cc1OC (stereo not shown) and report it.
23
